# key: entry, value: IC50
ASSAY_SYSTEM: CDK6-CYCLIND3 (Homo sapiens, UniProt Q00534)
Construct: purchased Carna
Sequence (Q00534 whole entry): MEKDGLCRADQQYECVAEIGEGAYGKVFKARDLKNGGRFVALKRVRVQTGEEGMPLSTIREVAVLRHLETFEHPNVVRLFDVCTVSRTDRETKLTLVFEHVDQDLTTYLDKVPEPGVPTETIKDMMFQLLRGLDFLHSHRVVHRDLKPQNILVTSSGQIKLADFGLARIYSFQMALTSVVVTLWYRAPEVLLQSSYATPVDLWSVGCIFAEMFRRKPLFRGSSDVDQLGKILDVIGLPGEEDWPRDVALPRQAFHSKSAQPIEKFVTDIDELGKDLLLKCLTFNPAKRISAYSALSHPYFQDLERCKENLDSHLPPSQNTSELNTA
Sequence (P30281 whole entry partner): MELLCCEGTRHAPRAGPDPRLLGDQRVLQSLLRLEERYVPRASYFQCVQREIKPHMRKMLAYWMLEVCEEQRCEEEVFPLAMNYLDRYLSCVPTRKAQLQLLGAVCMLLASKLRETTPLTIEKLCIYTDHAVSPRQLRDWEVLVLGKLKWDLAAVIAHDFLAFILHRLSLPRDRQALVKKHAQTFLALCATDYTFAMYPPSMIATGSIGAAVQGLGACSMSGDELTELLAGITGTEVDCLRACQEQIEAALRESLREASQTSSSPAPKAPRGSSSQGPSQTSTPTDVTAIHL
METHOD_SUMMARY: CDK inhibition assay (microfluidic LabChip, IC50 format)
Type: biochemical
CONDITIONS: Table 4b, upper part; read-out: CDK6 IC50
OBSERVED_PROPERTY: IC50 (nM)

# MOLECULE, OBSERVED_PROPERTY, UNITS_LABEL, ENDPOINT_VALUE
rows = [
    ("O=C1NCCC12Cc1cnc(Nc3ccc(OCCN4CCCC4)c(F)c3)nc1N(C1CCCC1)C2=O (stereo not shown)", "IC50", "nM", 8.81),
    ("O=C1NCCC12Cc1cnc(Nc3ccc(N4CC5(CNC5)C4)nc3)nc1N(C1CCCC1)C2=O (stereo not shown)", "IC50", "nM", 6.19),
    ("COc1cc(Nc2ncc3c(n2)N(C2CCCC2)C(=O)C2(CCNC2=O)C3)ccc1N1CCN(C(C)C)CC1 (stereo not shown)", "IC50", "nM", 8.12),
    ("O=C1NCCC12Cc1cnc(Nc3ccc(N4CCNCC4)nc3)nc1N(C1CCCC1)C2=O (stereo not shown)", "IC50", "nM", 13.1),
]

---

ASSAY_SYSTEM: CDK6-CYCLIND3 (Homo sapiens)
Construct: purchased Carna
METHOD_SUMMARY: CDK inhibition assay (microfluidic LabChip, IC50 format)
Format: biochemical
CONDITIONS: Table 4a; read-out: CDK6 CyclinD3 IC50
OBSERVED_PROPERTY: log10 IC50 (log10 of the value in µM)

# ENTRY_SMILES, ENDPOINT_VALUE
measured = [
    ("Cc1cc(N2CCNCC2)ccc1Nc1ncc2c(n1)N(C1CCCC1)C(=O)[C@]1(CCNC1=O)C2", -1.98),
    ("CN1CCN(c2ccc(Nc3ncc4c(n3)N(C3CCCC3)C(=O)[C@]3(CCNC3=O)C4)c(F)c2)CC1", -0.73),
    ("O=C1NCC[C@@]12Cc1cnc(Nc3ccc(-c4cn[nH]c4)cc3)nc1N(C1CCCC1)C2=O", -1.52),
    ("CN(C)[C@@H]1CCN(c2ccc(Nc3ncc4c(n3)N(C3CCCC3)C(=O)[C@]3(CCNC3=O)C4)cc2F)C1", -2.68),
    ("Cc1cc(N2CCN(C)CC2)ccc1Nc1ncc2c(n1)N(C1CCCC1)C(=O)[C@]1(CCNC1=O)C2", -1.97),
    ("CN(C)[C@@H]1CCN(c2ccc(Nc3ncc4c(n3)N(C3CCCC3)C(=O)[C@]3(CCNC3=O)C4)cn2)C1", -2.59),
    ("CC(C)n1cc(-c2ccc(Nc3ncc4c(n3)N(C3CCCC3)C(=O)[C@]3(CCNC3=O)C4)nc2)cn1", -1.27),
    ("CN(C)CCOc1ccc(Nc2ncc3c(n2)N(C2CCCC2)C(=O)[C@]2(CCNC2=O)C3)cc1", -2.67),
    ("Cc1cc(Nc2ncc3c(n2)N(C2CCCC2)C(=O)[C@]2(CCNC2=O)C3)ccc1N1CCNCC1", -2.64),
]

From: patent US20230048132A1
